test system: corn/maize (ZEAMX), Zea mays; test: Postemergence greenhouse trial, crop injury (phytotoxicity/safening) on corn/maize; type: in vivo; details: applied alone at 35 g/ha, rated after 20-22 d
Each record here notes measured % visual injury, Obs, ZEAMX.
All answers are understood in %, so give the number only.

Reference set (4 entries):
[[record]]
molecule = "COC(=O)c1nc(-c2ccc3ccn(C(=O)C(C)C)c3c2F)c(F)c(N)c1Cl"
assay_metric = "% visual injury, Obs, ZEAMX"
numeric_result = 35

[[record]]
molecule = "CCOC(=O)C1=NN(c2ccc(Cl)cc2Cl)C(C)(C(=O)OCC)C1 (centres unmarked) [mefenpyr-diethyl, reference compound]"
assay_metric = "% visual injury, Obs, ZEAMX"
numeric_result = 0

[[record]]
molecule = "COCC(=O)n1ccc2ccc(-c3nc(C(=O)OC)c(Cl)c(N)c3F)c(F)c21"
assay_metric = "% visual injury, Obs, ZEAMX"
numeric_result = 25

[[record]]
molecule = "COC(=O)c1nc(-c2ccc3ccn(C(=O)C(C)(C)C)c3c2F)c(F)c(N)c1Cl"
assay_metric = "% visual injury, Obs, ZEAMX"
numeric_result = 35


Alright, here's another molecule for you.
Ask: Let me know recorded % visual injury, Obs, ZEAMX for CCOC(=O)C1=NOC(c2ccccc2)(c2ccccc2)C1 [isoxadifen-ethyl, reference compound] , thanks.
Reply: 0
